Where do the numbers come from? From PubChem BioAssay.

Listed compounds paired with reported inhibition
tested_on: Nuclear receptor coactivator 1 (Homo sapiens) (UniProt Q15788)
Sequence (Q15788 whole entry, looked up): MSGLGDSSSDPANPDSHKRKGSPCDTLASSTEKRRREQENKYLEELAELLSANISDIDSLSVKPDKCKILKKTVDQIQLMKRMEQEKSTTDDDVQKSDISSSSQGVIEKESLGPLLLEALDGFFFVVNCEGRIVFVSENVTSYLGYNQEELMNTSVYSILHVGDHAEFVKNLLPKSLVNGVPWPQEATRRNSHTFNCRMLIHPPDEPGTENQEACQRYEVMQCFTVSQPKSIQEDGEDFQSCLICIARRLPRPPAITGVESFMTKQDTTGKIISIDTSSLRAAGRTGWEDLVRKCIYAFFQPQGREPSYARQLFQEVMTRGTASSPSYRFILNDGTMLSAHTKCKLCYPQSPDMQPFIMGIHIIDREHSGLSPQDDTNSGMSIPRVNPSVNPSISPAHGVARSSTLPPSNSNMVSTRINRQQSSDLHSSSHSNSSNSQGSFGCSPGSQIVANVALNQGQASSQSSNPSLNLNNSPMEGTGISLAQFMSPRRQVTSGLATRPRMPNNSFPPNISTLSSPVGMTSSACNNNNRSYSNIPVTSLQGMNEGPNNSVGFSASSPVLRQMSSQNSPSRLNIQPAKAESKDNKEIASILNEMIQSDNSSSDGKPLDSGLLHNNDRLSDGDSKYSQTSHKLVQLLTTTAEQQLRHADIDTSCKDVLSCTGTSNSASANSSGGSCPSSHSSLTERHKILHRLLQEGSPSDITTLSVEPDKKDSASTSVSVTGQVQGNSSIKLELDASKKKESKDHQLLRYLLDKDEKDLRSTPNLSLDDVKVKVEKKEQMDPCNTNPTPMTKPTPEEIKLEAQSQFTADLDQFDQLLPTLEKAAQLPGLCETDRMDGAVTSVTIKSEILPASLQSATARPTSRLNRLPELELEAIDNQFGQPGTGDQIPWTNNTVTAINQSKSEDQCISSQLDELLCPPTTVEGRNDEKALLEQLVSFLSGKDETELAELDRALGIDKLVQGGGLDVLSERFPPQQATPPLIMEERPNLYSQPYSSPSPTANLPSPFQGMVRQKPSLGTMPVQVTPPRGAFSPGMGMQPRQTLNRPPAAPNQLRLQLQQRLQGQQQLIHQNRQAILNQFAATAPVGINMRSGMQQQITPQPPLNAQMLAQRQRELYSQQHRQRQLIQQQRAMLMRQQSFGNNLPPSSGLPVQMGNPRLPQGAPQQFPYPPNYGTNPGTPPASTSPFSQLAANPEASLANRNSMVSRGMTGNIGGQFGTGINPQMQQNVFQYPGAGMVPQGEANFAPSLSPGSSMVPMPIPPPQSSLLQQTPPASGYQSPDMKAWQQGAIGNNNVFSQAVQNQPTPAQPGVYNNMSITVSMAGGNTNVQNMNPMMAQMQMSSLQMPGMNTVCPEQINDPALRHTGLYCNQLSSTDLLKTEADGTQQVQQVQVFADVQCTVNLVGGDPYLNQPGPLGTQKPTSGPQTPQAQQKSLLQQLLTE
measurement_notes: SRC1 coactivator transcriptional activity inhibitors, confirmation, cell-based, luminescence, quadruplicate (AID 588820);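 also: 0% = DMSO wells and 100% = gossypol 36 µM treated wells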
stated_conditions: HEK293 GAL4-SRC1 luciferase reporter, at 3.6 µM, active compounds read high
readout_kind: inhibition (%)

{"compound": "COc1ccc(Cl)cc1NC(=O)Nc1ccccc1C(N)=O", "numeric_result": 9.1}
{"compound": "CCCc1cc(=O)oc2cc(O[C@@H]3O[C@H](CO)[C@@H](O)[C@H](O)[C@H]3O)ccc12", "numeric_result": -9.52}
{"compound": "C[C@H]1CN([C@@H](C)CO)C(=O)CCCn2nncc2CO[C@H]1CN(C)C(=O)C1CCCCC1", "numeric_result": -19.8}
{"compound": "O=C(NC(=S)NCC1CCCO1)c1ccccc1[N+](=O)[O-] (stereo not drawn)", "numeric_result": -12.7}
{"compound": "Cc1cc2c(=Cc3ccc(N(C)C)cc3)c3ccccc3n2[n+]1C", "numeric_result": 23.9}
{"compound": "CCC(C)c1ccc(S(=O)(=O)Nc2cccnc2)cc1 (stereo not drawn)", "numeric_result": -9.79}
{"compound": "COc1ccc(-c2cn[nH]c2-c2ccc(OCc3ccc([N+](=O)[O-])cc3)cc2O)cc1", "numeric_result": 39.1}
{"compound": "CSc1nccc(Oc2cncc(Cl)c2)n1", "numeric_result": 8.08}
{"compound": "COc1cccc2c1C(=O)c1c(O)c3c(c(O)c1C2=O)CC(O)(C(C)=O)CC3OC1CC(N(C)C)C(O)C(C)O1 (stereo not drawn)", "numeric_result": 73.9}
{"compound": "Cc1nc2c(-c3ccc(F)cc3)cnn2c(N)c1-c1ccccc1", "numeric_result": 29.6}
{"compound": "Nc1c(Cl)ncnc1NCCc1ccc(O)cc1", "numeric_result": -6.45}
{"compound": "C[C@@H]1C[C@@H]2O[C@H]2/C=C\\C=C\\C(=O)Cc2c(Cl)c(O)cc(O)c2C(=O)O1", "numeric_result": -17.6}
{"compound": "CC(C)c1nc(NCCO)c(C#N)c2c1CCCC2", "numeric_result": 22.1}
{"compound": "Cc1c(/C(O)=C2/C(=O)C(=O)N(CCN3CCOCC3)C2c2ccco2)cnn1-c1ccccc1 (stereo not drawn)", "numeric_result": -20.6}
{"compound": "CC1Cc2ccccc2N1S(=O)(=O)c1cccc(C(=O)N2CCN(c3ncccn3)CC2)c1 (stereo not drawn)", "numeric_result": 16.5}
{"compound": "c1cnc2ccc(-n3ccnc3)cc2c1", "numeric_result": 19.9}
{"compound": "Nc1ncnc2c(C3OC(CO)C(O)C3O)c[nH]c12 (stereo not drawn)", "numeric_result": 95.7}
{"compound": "Clc1ccc(-c2csc(=Nc3cccnc3)n2CCCn2ccnc2)cc1Cl", "numeric_result": 49.7}
{"compound": "CN(C)c1ccc(CNC(=O)CCNS(=O)(=O)c2cc(Br)cnc2N)cc1", "numeric_result": 8.5}
{"compound": "COc1ccc(NC(=O)c2cc3c(s2)CCC(C)C3)cc1S(=O)(=O)N1CCOCC1 (stereo not drawn)", "numeric_result": 9.02}
{"compound": "COc1ccc(CCNc2c(C)c(C)nc3ncnn23)cc1", "numeric_result": -13.9}
{"compound": "O=C(Nc1cccc(Cl)c1)Nc1nnc(-c2ccncc2)s1", "numeric_result": 28.5}
{"compound": "c1csc(C2=Nn3c(nnc3-c3ccncc3)SC2)c1", "numeric_result": 67.9}
